// values below are reported GI50
System: HOP-92
Assay: NCI tumour cell line growth inhibition, 48 h
Calls of active or inactive are those of the source. Cut-off read from the data, not from the text of the source: active = GI50 up to about 1.1 µM and inactive = higher.

| Structure smiles | Assayed target | GI50 |
| --- | --- | --- |
| O=C1NC(=O)[C@H]2C3C=CC([C@@H]12)[C@@H]1C(=O)NC(=O)[C@H]31 | HOP-92 | > 100 µM (inactive) |
| O=c1oc2ccc3ccccc3c2cc1-c1cn2c(n1)sc1ccccc12 | HOP-92 | 55.2 µM (inactive) |
| CN(C)c1ccc(/N=N/c2ccncc2)cc1 | HOP-92 | 17.6 µM (inactive) |
| Oc1cc(-c2ccc3ccccc3c2)nc2ncc(Cl)cc12 | HOP-92 | 5.31 µM (inactive) |
| O=C(CBr)N1CCC2(CC1)SSC1(CCN(C(=O)CBr)CC1)S2 | HOP-92 | 2.1 µM (inactive) |
| CCN(CC)CCOc1ccc(C(=C2CCCCC2)c2ccc(OCCN(CC)CC)cc2)cc1 | HOP-92 | 2.02 µM (inactive) |

###

System: BT-549
Assay: NCI tumour cell line growth inhibition, 48 h
Active and inactive are the calls of the source. Cut-off read from the data, not from the text of the source: active = GI50 up to about 1.1 µM and inactive = higher.
Labels: active, inactive

| Compound | Class label |
| --- | --- |
| COc1cccc(/C=C2\CCC(CN(C)C)C2=O)c1 (stereo not drawn) | inactive |
| CN(C(=O)CCC(=O)O)c1ccccc1C(=O)O | inactive |
| COC1OC(COC(=O)NCCCCC(=O)C(F)(F)F)C(O)C(O)C1O (stereo not drawn) | inactive |
| COC(=O)c1ccc(CCC2=CC(=O)C=CC2=O)cc1 | inactive |
| CSc1ccc(-c2cc(-c3nc4ccccc4[nH]3)nc(N)c2C#N)cc1 | inactive |
| O=C(O)/C(=C/c1ccccc1)c1ccccc1 | inactive |
| Cc1ccc(Nc2nc3ccccc3c(=O)n2N)cc1 | inactive |
| Cc1cnc2nc(-c3cccc4ccccc34)cc(O)c2c1 | active |
| CN(C)CCNc1nc2ccccc2c2c1CCCC2 | inactive |
| CCN(CC)c1ccc2cc(-c3csc(C)n3)c(=O)oc2c1 | inactive |
| N=c1nc(N)c2cc3c(N)nc(=N)c3cc12 | inactive |
| COc1cc2cccc(N)c2cc1OC | inactive |
| CSC1=C(C#N)C(=S)N=C(N)C1C(=O)Nc1ccc(C)cc1 (stereo not drawn) | inactive |

###

Test system: MDA-N
Experiment: NCI tumour cell line growth inhibition, 48 h
Active and inactive are the calls of the source. No stated cut-off is given here; in the data, active = GI50 up to about 1.1 µM and inactive = higher.
Labels: Yes = active, No = inactive

| Compound | Class label |
| --- | --- |
| O=C(O)c1cc2ccccc2c(/N=N/c2ccc(S(=O)(=O)O)cc2)c1O | No |
| CCCCCCCCCCCCCCCCNC(=O)/C(=C\c1ccc(Cl)c(Cl)c1)NC(=O)c1ccccc1 | No |
| N=c1nc(N)c2cc3c(N)nc(=N)c3cc12 | No |
| CCOc1ccc(N/C(Cl)=C(Cl)\C(=C(\Nc2ccc(OCC)cc2)n2nnc3ccccc32)[N+](=O)[O-])cc1 | No |
| CCOC(=O)/C(C(=O)Nc1cccc(Cl)c1)=C(/N)N1CCOCC1 | No |
| CCc1ccc(CCC(=O)O)nc1 | No |
| O=c1oc2ccc3ccccc3c2cc1-c1cn2c(n1)sc1ccccc12 | No |
| CC(C)(C)c1cc(/C=C(\C#N)C2=NCCO2)cc(C(C)(C)C)c1O | No |
| O=[N+]([O-])/C(C(Cl)=C(Cl)Cl)=C(/Br)SCc1ccccc1 | No |
| Cc1cccnc1N/C=C1\C(=O)NC(=O)N(C)C1=O | No |
| COc1ccccc1/C=C1\CCC(Cc2ccccc2)(CN(C)C)C1=O (configuration not stated) | Yes |
| CC(=O)Oc1ccc2c(c1)Oc1cc(C(C)=O)ccc1C21OC(=O)c2ccccc21 (configuration not stated) | No |
| COC(=O)c1ccc(NC(=O)c2cc3c(cc2Br)OCO3)o1 | No |
| O=C1C2C(C(=O)N1c1ccccc1)C1(c3ccccc3)CCC2(C(=O)c2ccccc2)O1 (configuration not stated) | No |
| COc1ccc(CSCc2cc(OC)c(OC)c(OC)c2)cc1 | No |
| CN(C)Cc1cc(/N=N/c2cccc(Cl)c2)ccc1O | No |
| O=[N+]([O-])C(=C(Nc1ccccc1)Nc1ccccc1)C(Cl)=C(Cl)Cl | No |
| Cc1cnc2nc(-c3cccc4ccccc34)cc(O)c2c1 | Yes |
| Cc1cn(C2OC(CO[Si](C)(C)C(C)(C)C)/C(=C\C#N)C2O[Si](C)(C)C(C)(C)C)c(=O)[nH]c1=O (configuration not stated) | No |
| COc1ccc(-c2nc3cc(C(F)(F)F)ccc3n2CC2CCCN3CCCCC23)cc1 (configuration not stated) | No |
| Cc1ccc(C2SC(=N)Nc3c2c(C)nn3C(=O)c2ccccc2O)cc1 (configuration not stated) | No |
| [O-][n+]1onc(-c2ccccc2)c1CN1CCOCC1 | No |

###

Test system: SF-295
Assay: NCI tumour cell line growth inhibition, 48 h
Calls of active or inactive are those of the source. Rule as the data show it: active = GI50 up to about 1.1 µM and inactive = higher.

| Compound | GI50 |
| --- | --- |
| CCNC1=Nc2ccc(Cl)cc2C(c2ccccc2)=NN1 | 19.2 µM (inactive) |
| O=C(CCN1CCOCC1)/C(=C/c1ccccc1)c1ccccc1 | 12.3 µM (inactive) |
| OCC1C(O)C(O)[C@@H]2SCCN12 (stereo partly specified) | > 100 µM (inactive) |
| CCOC(=O)CC(N1CC1)N1CC1 | > 10 µM (inactive) |
| Cc1ccc(C2=C(c3ccccc3)C(O)(c3ccccc3)C(c3ccccc3)=C2c2ccc(C)cc2)cc1 | 35.6 µM (inactive) |
| CCN(C(=O)N[C@@H](Cc1ccccc1)C(=O)N[C@@H](CC(C)C)C(=O)NC)c1ccccc1 | > 100 µM (inactive) |

###

Test system: ACHN
Assay: NCI tumour cell line growth inhibition, 48 h
The source made the active and inactive calls. Rule as the data show it: active = GI50 up to about 1.1 µM and inactive = higher.

| Compound | GI50 |
| --- | --- |
| O=C1OC2(c3ccccc3Oc3ccccc32)c2ccccc21 | > 100 µM (inactive) |
| C=CC(OC(C)=O)c1ccc(OC(=O)C(C)C)c(OC)c1 (stereo not given) | 3.34 µM (inactive) |
| COc1ccc(NC(C)=O)cc1N1C(=O)/C(=C\c2cc(OC)c(OC)c(OC)c2)SC1c1ccccc1 (stereo not given) | 44.4 µM (inactive) |
| C=C(C)C1=CCC[C@]2(C1)N=C(OC)[C@@H](C(C)C)N=C2OC | > 100 µM (inactive) |
| Cc1ccc(C2=C(c3ccccc3)C(O)(c3ccccc3)C(c3ccccc3)=C2c2ccc(C)cc2)cc1 | > 100 µM (inactive) |
| CCOC(=O)CC(N1CC1)N1CC1 | > 10 µM (inactive) |
| c1ccc2c(c1)nc1n2CCNC1 | > 100 µM (inactive) |
| C/C(CCn1[nH]c(=O)ccc1=O)=N\Nc1ccc([N+](=O)[O-])cc1[N+](=O)[O-] | 90.8 µM (inactive) |
| O=[N+]([O-])C(=C(N1CCCCC1)N1CCCCC1)/C(Cl)=C(\Cl)[N+](=O)[O-] | 3.27 µM (inactive) |
| N#CCN1CCN(CC#N)CCN(CC#N)CCN(CC#N)CC1 | > 100 µM (inactive) |

###

Tested on: KM12
Experiment: NCI tumour cell line growth inhibition, 48 h
Calls of active or inactive are those of the source. Cut-off read from the data, not from the text of the source: active = GI50 up to about 1.1 µM and inactive = higher.
Classes used: 1 = active, -1 = inactive

| Compound | Assayed target | Class label |
| --- | --- | --- |
| O=C(CCN1CCOCC1)/C(=C/c1ccccc1)c1ccccc1 | KM12 | -1 |
| CC1(C)CN(c2ccccc2)C(=O)C1OC(=O)[C@@]1(C)C[C@@H]2C=C[C@H]1C2 (stereo partly drawn) | KM12 | -1 |
| CC1=C2C(c3ccccc3)(c3ccccc3)C3C=CC2(C=N3)N(C(=O)NC2CCCCC2)C1=O (stereo not drawn) | KM12 | -1 |
| CCCCCCc1cc2cc(C(=O)Nc3cccc(F)c3)c(=N)oc2cc1O | KM12 | -1 |
| N=C(N)SCc1cn2ccccc2n1 | KM12 | -1 |
| CCC1C(C#N)=C(O)NC(O)=C1C#N | KM12 | -1 |
| Cc1ccc2c(c1C)-c1c(ccc(C)c1C)C(=O)C2=O | KM12 | 1 |
| O=C1c2ccccc2C(=O)c2sc(Nc3ccc(Cl)c(Cl)c3)nc21 | KM12 | -1 |
| CCCCCCCCCCCCCCCCCCOCC(O)COP(=O)(O)OCC1OC(n2ccc(N)nc2=O)C(O)C1O (stereo not drawn) | KM12 | -1 |
| CC(=O)CC(=O)CCCC(=O)Nc1ccc(Cl)cc1Cl | KM12 | -1 |
| CCc1c(-c2ccc(OC)cc2)oc(OC)c(C)c1=O | KM12 | -1 |
| CSc1ccc(-c2cc(-c3nc4ccccc4[nH]3)nc(N)c2C#N)cc1 | KM12 | -1 |
| C=C1C(=O)OC2C[C@@]3(C)CCCC(=C)C3CC12 (stereo partly drawn) | KM12 | -1 |
| CC(CN(C)C)/C(=N\Nc1ccccc1)c1ccccc1 (stereo not drawn) | KM12 | 1 |
| N=C(N)SCc1ccc(N=C=S)cc1 | KM12 | -1 |
| CN(C)c1ccc(/C=C(\NC(=O)c2ccccc2)c2nn(C)c(=O)o2)cc1 | KM12 | -1 |
| c1ccc2c(c1)nc1n2CCNC1 | KM12 | -1 |
| O=C(Nc1cccc(NC(=O)C(=O)C2CCC3=C(Sc4ccccc4N3)C2=O)n1)C(=O)C1CCC2=C(Sc3ccccc3N2)C1=O (stereo not drawn) | KM12 | -1 |
| CCCCOc1c(C(=O)O)cc(Br)cc1C(=O)O | KM12 | -1 |
| CN(C)c1ccc(/N=N/c2ccncc2)cc1 | KM12 | -1 |
| O=[N+]([O-])c1ccc(NN=C2CN3CCN(C2)c2ccccc23)c([N+](=O)[O-])c1 | KM12 | -1 |
| COC(=O)c1ccccc1C1CN=NC12Cc1ccccc1C2=O (stereo not drawn) | KM12 | -1 |
| O=C1OC2(c3ccccc3Oc3ccccc32)c2ccccc21 | KM12 | -1 |
